Entry source: patent US11453674B2

Target: hURAT1 (Homo sapiens, UniProt Q96S37)
Sequence (Q96S37 whole entry): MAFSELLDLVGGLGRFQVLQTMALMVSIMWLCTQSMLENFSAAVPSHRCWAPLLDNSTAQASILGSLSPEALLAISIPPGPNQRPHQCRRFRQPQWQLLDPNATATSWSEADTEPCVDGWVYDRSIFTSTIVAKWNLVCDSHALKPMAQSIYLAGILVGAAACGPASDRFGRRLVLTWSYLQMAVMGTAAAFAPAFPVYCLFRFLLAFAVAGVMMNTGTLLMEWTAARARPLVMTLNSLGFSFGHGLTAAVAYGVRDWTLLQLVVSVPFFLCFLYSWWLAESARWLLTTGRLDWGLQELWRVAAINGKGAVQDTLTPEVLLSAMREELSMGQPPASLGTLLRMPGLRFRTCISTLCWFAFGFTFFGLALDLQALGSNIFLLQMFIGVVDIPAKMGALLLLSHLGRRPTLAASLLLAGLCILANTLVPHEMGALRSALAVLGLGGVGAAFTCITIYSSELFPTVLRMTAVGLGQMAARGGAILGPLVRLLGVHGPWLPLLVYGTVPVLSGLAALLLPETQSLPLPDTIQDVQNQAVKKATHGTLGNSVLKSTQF
Assay: Inhibition of 14C-uric acid uptake by hURAT1 in HEK293-transfected cells
Details: HEK-293T cells stably expressing hURAT1, 14C-uric acid uptake, 5 min at 37° C.
Protocol: 1. Cell Culture and Inoculation 2) When the cells covered 80% of the culture medium, the culture medium was removed. The cells were washed with PBS once, followed by digestion with pancreatin-EDTA. After detachment, the cells were added with a culture medium, exfoliated by pipetting, and centrifuged for harvesting. […] The data were analyzed and the IC50 of the quality controls and all test compounds on the plates were calculated using XL-fit software.

{"columns": ["mol", "IC50"],
 "data": [
  ["CCc1nc2ncccn2c1C(=O)c1cc(Br)c(O)c(C(F)(F)F)c1", "50 to 200 nM"],
  ["CCc1nc2ncc(C(F)(F)F)cn2c1C(=O)c1cc(Br)c(O)c(Br)c1", "< 50 nM"],
  ["CCc1nc2ncc(Br)cn2c1C(=O)c1cc(Br)c(O)c(Br)c1", "< 50 nM"],
  ["CCn1nc2ccc(F)cc2c1C(=O)c1cc(Br)c(O)c(Br)n1", "50 to 200 nM"],
  ["CCc1nc2ncc(Cl)cn2c1C(=O)c1cc(Br)c(O)c(Br)c1", "< 50 nM"]
]}

----------
molecular target: OAT1 (Homo sapiens); construct: host or cells: HEK293/OAT1 (hygromycin B selection); assay: Inhibition of 6-carboxyfluorescein uptake in HEK293/OAT1 cells; format: cell-based; details: ratio of OAT1 IC50 to hURAT1 IC50 (selectivity)
Sequence (Q4U2R8 whole entry, species assumed): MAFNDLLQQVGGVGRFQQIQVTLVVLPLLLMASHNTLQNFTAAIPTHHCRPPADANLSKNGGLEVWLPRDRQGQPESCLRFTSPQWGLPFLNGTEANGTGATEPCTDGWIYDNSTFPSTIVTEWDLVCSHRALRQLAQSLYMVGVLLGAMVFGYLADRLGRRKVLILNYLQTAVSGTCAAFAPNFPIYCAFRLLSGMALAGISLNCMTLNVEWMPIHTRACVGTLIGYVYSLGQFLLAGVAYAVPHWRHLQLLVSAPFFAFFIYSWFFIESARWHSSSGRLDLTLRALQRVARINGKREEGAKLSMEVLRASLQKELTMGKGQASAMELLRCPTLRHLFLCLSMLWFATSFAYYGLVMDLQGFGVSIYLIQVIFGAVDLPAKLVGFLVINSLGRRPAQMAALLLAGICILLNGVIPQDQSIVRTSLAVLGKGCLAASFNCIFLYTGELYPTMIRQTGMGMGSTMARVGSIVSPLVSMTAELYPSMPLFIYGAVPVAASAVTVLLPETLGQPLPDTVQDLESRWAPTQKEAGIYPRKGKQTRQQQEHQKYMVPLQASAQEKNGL
Property: IC50, OAT1/IC50, hURAT1; scope: individual molecules
assay metric: IC50, OAT1/IC50, hURAT1

{"columns": ["molecule", "assay metric", "measured result"],
 "data": [
  ["CCc1nc2cc(C(F)(F)F)ncn2c1C(=O)c1cc(Br)c(O)c(Br)c1 [Example 7]", "IC50, OAT1/IC50, hURAT1", 14.2],
  ["CCc1nc2ncc(F)cn2c1C(=O)c1cc(Br)c(O)c(C(F)(F)F)c1 [Example 18]", "IC50, OAT1/IC50, hURAT1", 24.5],
  ["CCn1nc2ccncc2c1C(=O)c1cc(Br)c(O)c(Br)c1 [Example 16]", "IC50, OAT1/IC50, hURAT1", 17.4],
  ["CCn1nc2ccc(F)cc2c1C(=O)c1cc(Br)c(O)c(Br)c1 [Example 9]", "IC50, OAT1/IC50, hURAT1", 7.6]
]}

----------
target: hURAT1 (Homo sapiens, UniProt Q96S37); construct: expressed in transfected cells; assay: Inhibition of 14C-uric acid uptake by hURAT1 in HEK293-transfected cells; format: cell-based; conditions: HEK-293T cells stably expressing hURAT1, 14C-uric acid uptake, 5 min at 37° C.
assay metric: IC50

{"columns": ["mol", "tested system", "assay metric", "measured result"],
 "data": [
  ["CCn1nc2ccncc2c1C(=O)c1cc(Br)c(O)c(Br)c1", "hURAT1 (Homo sapiens, UniProt Q96S37)", "IC50", "< 50 nM"],
  ["CCc1oc2ccncc2c1C(=O)c1cc(Br)c(O)c(Br)c1", "hURAT1 (Homo sapiens, UniProt Q96S37)", "IC50", "< 50 nM"],
  ["CCc1nc2cc(Cl)ncn2c1C(=O)c1cc(Br)c(O)c(Br)c1", "hURAT1 (Homo sapiens, UniProt Q96S37)", "IC50", "< 50 nM"],
  ["CCn1nc2ccc(F)cc2c1C(=O)c1cc(Br)c(O)c(Br)c1", "hURAT1 (Homo sapiens, UniProt Q96S37)", "IC50", "50 to 200 nM"],
  ["CCc1nc2ncc(F)cn2c1C(=O)c1cc(Br)c(O)c(Br)c1", "hURAT1 (Homo sapiens, UniProt Q96S37)", "IC50", "< 50 nM"],
  ["CCc1nc2ncccn2c1C(=O)c1cc(Br)c(O)c(Br)c1", "hURAT1 (Homo sapiens, UniProt Q96S37)", "IC50", "< 50 nM"],
  ["CCc1nc2ncccn2c1C(=O)c1cc(Br)c(O)c(C#N)c1", "hURAT1 (Homo sapiens, UniProt Q96S37)", "IC50", "200 to 500 nM"],
  ["CCc1nc2ncc(F)cn2c1C(=O)c1cc(Br)c(O)c(C(F)(F)F)c1", "hURAT1 (Homo sapiens, UniProt Q96S37)", "IC50", "< 50 nM"],
  ["CCc1nc2ncc(F)cn2c1C(=O)c1cc(Br)c(O)c(C#N)c1", "hURAT1 (Homo sapiens, UniProt Q96S37)", "IC50", "50 to 200 nM"],
  ["CCc1nc2cc(C(F)(F)F)ncn2c1C(=O)c1cc(Br)c(O)c(Br)c1", "hURAT1 (Homo sapiens, UniProt Q96S37)", "IC50", "50 to 200 nM"]
]}
